meta.source: patent US20070244048A1

# Lookup of reported % Activity (FLIPR) keyed by entry
ASSAY_TARGET: T1, mouse NMUR1-CTG (mouse, UniProt O55040 1-428)
T1 sequence (looked up): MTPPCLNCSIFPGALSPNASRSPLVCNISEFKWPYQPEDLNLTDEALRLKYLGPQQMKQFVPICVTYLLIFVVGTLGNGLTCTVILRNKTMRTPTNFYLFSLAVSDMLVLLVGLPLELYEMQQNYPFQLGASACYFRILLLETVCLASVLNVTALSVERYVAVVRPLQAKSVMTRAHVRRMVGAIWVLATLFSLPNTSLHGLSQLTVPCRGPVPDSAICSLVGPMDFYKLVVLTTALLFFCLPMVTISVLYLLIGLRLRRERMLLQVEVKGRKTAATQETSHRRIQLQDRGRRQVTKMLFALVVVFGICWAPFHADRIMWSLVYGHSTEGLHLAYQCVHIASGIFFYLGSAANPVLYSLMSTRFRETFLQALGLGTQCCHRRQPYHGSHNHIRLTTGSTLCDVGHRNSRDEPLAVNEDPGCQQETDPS
TEST: cell-based or functional assay
No end group written: not given here. *: point of attachment. (PEG)2 40 kDa = branched PEG of 40 kDa linked via the Cys side-chain thiol (code C2 = Cys(PEG)2 40 kDa); Cholesteroyl = cholesterol linked to a cysteine residue via the side-chain thiol; Succinimide(1-Et,3-yl) = CCN1C(=O)CC(*)C1=O; Palmitoyl = CCCCCCCCCCCCCCCC(=O)*
Value expressed in %; do not type the unit.

Ac-C(Succinimide(1-Et,3-yl))ASQSRGYFLFRPRN-NH2 (SMILES CCN1C(=O)CC(SC[C@H](NC(C)=O)C(=O)N[C@@H](C)C(=O)N[C@@H](CO)C(=O)N[C@@H](CCC(N)=O)C(=O)N[C@@H](CO)C(=O)N[C@@H](CCCNC(=N)N)C(=O)NCC(=O)N[C@@H](Cc2ccc(O)cc2)C(=O)N[C@@H](Cc2ccccc2)C(=O)N[C@@H](CC(C)C)C(=O)N[C@@H](Cc2ccccc2)C(=O)N[C@@H](CCCNC(=N)N)C(=O)N2CCC[C@H]2C(=O)N[C@@H](CCCNC(=N)N)C(=O)N[C@@H](CC(N)=O)C(N)=O)C1=O) [NMU17]: 117
Ac-C(Cholesteroyl)GYFLFRPRN-NH2 [NMU11]: 65
Ac-C(Cholesteroyl)FRVDEEFQSPFASQSRGYFLFRPRN-NH2 [NMU10]: 69.2
Ac-C((PEG)2 40 kDa)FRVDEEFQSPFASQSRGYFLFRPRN-NH2 [NMU9]: 71.7
Palmitoyl-C((PEG)2 40 kDa)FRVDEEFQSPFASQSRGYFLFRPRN-NH2 [NMU25]: 100

Query: Answer with the recorded % Activity (FLIPR) of Ac-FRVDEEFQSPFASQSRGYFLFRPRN-NH2 [NMU2] only.
Result: 100

Query: Answer with the recorded % Activity (FLIPR) of Ac-C((PEG)2 40 kDa)ASQSRGYFLFRPRN-NH2 [NMU18] only.
Result: 57.7

Query: Answer with the recorded % Activity (FLIPR) of Ac-C(Succinimide(1-Et,3-yl))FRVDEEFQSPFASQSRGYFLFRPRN-NH2 [NMU8] only.
Result: 100

Query: Answer with the recorded % Activity (FLIPR) of Ac-C((PEG)2 40 kDa)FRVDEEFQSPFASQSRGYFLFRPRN-NH2 [NMU12] only.
Result: 68.5

Query: Answer with the recorded % Activity (FLIPR) of Ac-C(Succinimide(1-Et,3-yl))C(Succinimide(1-Et,3-yl))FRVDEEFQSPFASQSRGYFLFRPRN-NH2 [NMU22] only.
Result: 100

Query: Answer with the recorded % Activity (FLIPR) of FRVDEEFQSPFASQSRPYFLFRPRN-NH2 [NMU4] only.
Result: 100
